Parameter: GI50. Scope: all listed entries.
# Test system: SK-MEL-28
# Test details: NCI tumour cell line growth inhibition, 48 h
Active and inactive are the calls of the source. Cut-off read from the data, not from the text of the source: active = GI50 up to about 1.1 µM and inactive = higher.
Recorded metric: GI50

                               query_smiles               result
0     O=C(N/N=C/c1cc(Cl)cc(Cl)c1O)c1ccccc1O   1.31 µM (inactive)
1        O=C1/C(=C/c2ccc(Cl)cc2)CSc2ccccc21   23.1 µM (inactive)
2  Cc1ccc(NC(=O)c2cccc(OP(=O)(Nc3ccc(C)cc3)Nc3ccc(C)cc3)c2)cc1   29.9 µM (inactive)
3  CCN(CC)CCCn1c(=O)c2cccnc2n2c3c(=O)n(C)c(=O)n(C)c3nc12  > 100 µM (inactive)
4                            CNC(=O)N(C)COC  > 100 µM (inactive)

====

# Tested on: 786-0
# Test details: NCI tumour cell line growth inhibition, 48 h
Calls of active or inactive are those of the source. Rule as the data show it: active = GI50 up to about 1.1 µM and inactive = higher.
Recorded metric: GI50

                                   molecule               result
0        O=C(Cn1c2c(c3ccccc31)CCCC2)N1CCCC1  > 100 µM (inactive)
1  C=C[C@H]1CC[C@H]2[C@@H]3CC=C4C[C@@H](OC5OCC(O)C(O)C5O)CC[C@]4(C)[C@H]3CC[C@]12C (stereo not given in full)   15.3 µM (inactive)
2  O=C(OCC(Cl)(Cl)Cl)N1CC[C@@H](C2CCCCC2)C1   20.6 µM (inactive)
3  O=C1Nc2ccc(Br)cc2/C1=N/N1C(=O)C(=O)N(C2CCCCC2)C1=S   5.46 µM (inactive)
4  COc1ccc(-c2oc3c(OC)c(OC)c(OC)c(OC)c3c(=O)c2OC)cc1OC   24.5 µM (inactive)

====

# Tested on: SK-OV-3
# Test details: NCI tumour cell line growth inhibition, 48 h
Active and inactive are the calls of the source. No stated cut-off is given here; in the data, active = GI50 up to about 1.1 µM and inactive = higher. Peptide text beside a SMILES is read from it.

Compound	System tested	GI50
CC(=O)OCCC[C@@H]1C(=C(C)C)CCC2[C@@]1(C)CC[C@@]1(C)C[C@](C)(CCC=C(C)C)CC[C@]21C (stereo partly drawn)	SK-OV-3	> 100 µM (inactive)
COc1cccc(C23CCCC(C2)N(C)CC3OC(=O)c2ccccc2)c1OC (stereo not drawn)	SK-OV-3	34 µM (inactive)
c1ccc(/N=C(\N2CCCC2)N(CCN2CCCC2)c2ccccc2)cc1	SK-OV-3	63.4 µM (inactive)
O=c1cc(CO)n(CCc2c[nH]c3ccccc23)cc1O	SK-OV-3	48.4 µM (inactive)
CN(Cc1cc(Cl)cc(Cl)c1)CC(C(=O)c1ccccc1)c1ccccc1 (stereo not drawn)	SK-OV-3	10.6 µM (inactive)
O=C1/C(=C/c2ccc(Cl)cc2)CSc2ccccc21	SK-OV-3	31.8 µM (inactive)
NC(=O)C12CC3CC(CC(F)(C3)C1)C2	SK-OV-3	> 100 µM (inactive)
CC(C)CC(NC(=O)C(CC(C)C)NC(=O)C(Cc1c[nH]cn1)NC(=O)C(C)NC(=O)C(NC(=O)C(C)NC(=O)C(Cc1c[nH]c2ccccc12)NC(=O)C(CCC(=O)O)NC(=O)C(N)Cc1ccccc1)C(C)C)C(N)=O (stereo not drawn) (H-FEWAVAHLL-NH2; configuration not given here)	SK-OV-3	> 12.5 µM (inactive)

====

# System: MOLT-4
# Test details: NCI tumour cell line growth inhibition, 48 h
Calls of active or inactive are those of the source. Cut-off read from the data, not from the text of the source: active = GI50 up to about 1.1 µM and inactive = higher.
Classes used: T = active, F = inactive

In [3]: df
Out[3]:
                               query_smiles  qualitative_label
0       COc1cc(O)c2c(=O)c3c(C)cccc3n(C)c2c1                  F
1            O=C1C=C(N2CCCC2)C=C(N2CCCC2)C1                  F
2  O=P(c1ccccc1)(c1ccccc1)N1O[C@@H](c2ccccc2)C=C[C@H]1c1ccccc1                  F
3  CCCCCCNCCCNc1c2cc(OC)ccc2nc2cccc([N+](=O)[O-])c12                  T

====

# Tested on: LXFL 529
# Test details: NCI tumour cell line growth inhibition, 48 h
The source made the active and inactive calls. No stated cut-off is given here; in the data, active = GI50 up to about 1.1 µM and inactive = higher.
Listed here: items and their measured GI50.
Recorded metric: GI50

                                   compound               result
0  N#CCCN(CCC#N)c1ccc(/C=C(/NC(=O)c2cc([N+](=O)[O-])ccc2Cl)C(=O)NN)cc1     54 µM (inactive)
1  C=C(C)C12CC3CC(/C(=N/O)C(C1)/C3=N\O)[C@@]2(C)O (stereo not given in full)  > 100 µM (inactive)
2  C=C1C(=O)OC2CC3(C)OC3CC/C(C)=C/C(OC(C)=O)C12 (stereo not given)   2.14 µM (inactive)
3                NC1=C(Br)C(=O)c2ncccc2C1=O    0.321 µM (active)
4       O=Cc1cn(S(=O)(=O)c2ccccc2)c2ccccc12   36.4 µM (inactive)
5     COc1ccc2c3c(c(C(=O)c4ccccc4)oc13)CCC2  > 100 µM (inactive)
6  CCCCn1c(-c2ccccc2)cs/c1=N\NC(=O)Cn1c(C)nc2ccccc21   25.1 µM (inactive)
7  C=CCC1(CN(C)C)CC/C(=C\c2ccc(OC)cc2)C1=O (stereo not given)   47.2 µM (inactive)
8  CC(=O)Oc1c(-c2ccccc2)[nH]c2cc([N+](=O)[O-])c(/C(Cl)=C/c3ccccc3)cc12    3.9 µM (inactive)
9        Cn1c(=O)c2nc(N3CCCCC3)cnc2n(C)c1=O  > 100 µM (inactive)

====

# System: SW-620
# Test details: NCI tumour cell line growth inhibition, 48 h
Active and inactive are the calls of the source. Rule as the data show it: active = GI50 up to about 1.1 µM and inactive = higher.
Recorded metric: GI50

Molecule	Result
COc1cccc(C23CCCC(C2)N(C)CC3OC(=O)c2ccccc2)c1OC (stereo not given)	24.4 µM (inactive)
CC/C=C1\N=C(c2ccc(Cl)cc2)OC1=O	> 100 µM (inactive)
O=C(CSC(=S)N1CCCCC1)Nc1nc2c(s1)CCCC2	40.7 µM (inactive)
CCCC[C@H]1C(=O)O[C@H](C)[C@H](NC(=O)c2cccc(NC=O)c2OC)C(=O)O[C@@H](C)[C@@H]1OC(=O)C(C)CC.CCCC[C@H]1C(=O)O[C@H](C)[C@H](NC(=O)c2cccc(NC=O)c2OC)C(=O)O[C@@H](C)[C@@H]1OC(=O)CC(C)C (stereo not given in full)	20.3 µM (inactive)
CCOC(=O)CCC(NC(=O)c1ccc(Oc2nc3ccccc3nc2-c2ccccc2)cc1)C(=O)OCC (stereo not given)	> 100 µM (inactive)

====

# Test system: IGROV-1
# Test details: NCI tumour cell line growth inhibition, 48 h
Activity calls are given as the source filed them. No stated cut-off is given here; in the data, active = GI50 up to about 1.1 µM and inactive = higher.
Overview of reported GI50 across a group of molecules:
Recorded metric: GI50

>>> df
                                    molecule  system_tested               result
 0      C#CC[N+](CCO)(CCO)CCCCCCCCCCCCCCCCCC        IGROV-1   2.18 µM (inactive)
 1  C=C1C(=O)OC2CC3(C)OC3CC/C(C)=C/C(OC(C)=O)C12 (stereo not drawn)        IGROV-1   17.1 µM (inactive)
 2  O=C(O)CCN(CCCCN(CCC(=O)O)CCC(=O)O)CCC(=O)O        IGROV-1  > 100 µM (inactive)
 3  O=C(O)c1ccc(Nc2nc3ccc(C(F)(F)F)cc3nc2C(=O)O)cc1        IGROV-1  > 100 µM (inactive)
 4  COc1nc(N)c(NC2OC(CO)C(O)C2O)c(=O)[nH]1 (stereo not drawn)        IGROV-1  > 100 µM (inactive)
 5       CC(=O)C(=[N+]=[N-])C(=O)OC(C)(C)C#N        IGROV-1   > 10 µM (inactive)
 6  Cc1ccc(SC2=C(N(C)C)C(=O)c3ccccc3C2=O)cc1        IGROV-1   4.95 µM (inactive)
 7  C=CCC(SC)C1=C(C)C(=O)c2ccccc21 (stereo not drawn)        IGROV-1   > 10 µM (inactive)
 8  C/C=C(\C)C(=O)OC1C2C(C)C(=O)OC2C(O)C(C)C2C=CC(=O)C21C (stereo not drawn)        IGROV-1   8.69 µM (inactive)
 9  N#CC(C#N)[C@@H]1CCC=C(Sc2ccccc2)[C@H]1Sc1ccccc1        IGROV-1   2.29 µM (inactive)
10           CCOC(=O)C1=C(O)C(=O)c2ccoc2C1=O        IGROV-1  > 100 µM (inactive)
11       COc1cc(O)c2c(=O)c3c(C)cccc3n(C)c2c1        IGROV-1   > 10 µM (inactive)
12        O=C1/C(=C/c2ccc(Cl)cc2)CSc2ccccc21        IGROV-1   23.7 µM (inactive)
